Please provide measured max RFU, maximum relative fluorescence units for the entries that follow.
Test: Primary screening of photostability of the CyNA library (time-course fluorescence, 8 h)
Assay type: physicochemical
Details: 10 μM in HEPES 100 mM pH 7.4, 2% DMSO
# answer = number (no unit)

Input: // Input: "CCCN1/C(=C/C=C2\CCCC(/C=C/C3=[N+](CCC)c4ccccc4C3(C)C)=C2N(CC2CCCCC2)C(C)=O)C(C)(C)c2ccccc21" . Output its max RFU, maximum relative fluorescence units only.
Output: 294.6

Input: Answer with reported max RFU, maximum relative fluorescence units of "CCCN1/C(=C/C=C2\CCCC(/C=C/C3=[N+](CCC)c4ccccc4C3(C)C)=C2N(Cc2c(F)cccc2F)C(C)=O)C(C)(C)c2ccccc21"
Output: 734.9

Input: Write down max RFU, maximum relative fluorescence units measured for item "CCCN(C(C)=O)C1=C(/C=C/C2=[N+](CCC)c3ccccc3C2(C)C)CCC/C1=C\C=C1\N(CCC)c2ccccc2C1(C)C"
Output: 1027.9

Input: Note max RFU, maximum relative fluorescence units for the molecule shown: "CCCN1/C(=C/C=C2\CCCC(/C=C/C3=[N+](CCC)c4ccccc4C3(C)C)=C2N(CCc2ccc(C)cc2)C(C)=O)C(C)(C)c2ccccc21.[I-]"
Output: 121.6

Input: Respond only with max RFU, maximum relative fluorescence units recorded for "CCCN1/C(=C/C=C2\CCCC(/C=C/C3=[N+](CCC)c4ccccc4C3(C)C)=C2N(Cc2ccccn2)C(C)=O)C(C)(C)c2ccccc21"
Output: 856.5

Input: Indicate its recorded max RFU, maximum relative fluorescence units; the molecule in question is "CCCN1/C(=C/C=C2\CCCC(/C=C/C3=[N+](CCC)c4ccccc4C3(C)C)=C2N(Cc2ccc(Cl)c(Cl)c2)C(C)=O)C(C)(C)c2ccccc21"
Output: 335.5

Input: Please report the measured max RFU, maximum relative fluorescence units for CCCN1/C(=C/C=C2\CCCC(/C=C/C3=[N+](CCC)c4ccccc4C3(C)C)=C2N(CC(C)CC)C(C)=O)C(C)(C)c2ccccc21 (stereo not drawn)
Output: 321.1

Input: Give reported max RFU, maximum relative fluorescence units value for CCCN1/C(=C/C=C2\CCCC(/C=C/C3=[N+](CCC)c4ccccc4C3(C)C)=C2N(C(C)=O)C(C)CCc2ccccc2)C(C)(C)c2ccccc21 (stereo not drawn)
Output: 679.8

Input: Please look at this molecule and report its max RFU, maximum relative fluorescence units: "CCCN1/C(=C/C=C2\CCCC(/C=C/C3=[N+](CCC)c4ccccc4C3(C)C)=C2N(Cc2cccc(OC)c2)C(C)=O)C(C)(C)c2ccccc21"
Output: 739.9

Input: Let me know recorded max RFU, maximum relative fluorescence units for "CCCN1/C(=C/C=C2\CCCC(/C=C/C3=[N+](CCC)c4ccccc4C3(C)C)=C2N(Cc2ccc3c(c2)OCO3)C(C)=O)C(C)(C)c2ccccc21" , thanks.
Output: 851.3

Input: Could you please provide reported max RFU, maximum relative fluorescence units for "CCCCCCCCCCCN(C(C)=O)C1=C(/C=C/C2=[N+](CCC)c3ccccc3C2(C)C)CCC/C1=C\C=C1\N(CCC)c2ccccc2C1(C)C" ? Thanks!
Output: 279.2

Input: Provide only the value of recorded max RFU, maximum relative fluorescence units for "CCCN1/C(=C/C=C2\CCCC(/C=C/C3=[N+](CCC)c4ccccc4C3(C)C)=C2N(CCc2ccccc2F)C(C)=O)C(C)(C)c2ccccc21"
Output: 169.8
